# Lookup of reported log10 of IC50 keyed by entry
Tested on: L1210
Experiment: Inhibitory activity was tested against L1210 cells
Format: functional, cell-based
Settings: Mus musculus
Note the log scale: values are log10 of IC50 expressed in µM.

Please review the following examples before continuing.
- COc1cccc(/C=C2\Cc3ccccc3C2=O)c1: 2.34
- O=C1CCCCC/C1=C\c1cccc([N+](=O)[O-])c1: 2.21

[Q] // returns reported log10 of IC50 for input Cc1ccc(/C=C2\Cc3ccccc3C2=O)cc1
[A] 1.77

[Q] // query: CN(C)c1ccc(/C=C2\CCc3ccccc3C2=O)cc1
[A] 1.24

[Q] // query: O=C1/C(=C/c2cccc(F)c2)CCCc2ccccc21
[A] 2.13

[Q] // query: O=C1/C(=C/c2ccc(F)cc2)Cc2ccccc21
[A] 1.95

[Q] // query: O=C1/C(=C/c2ccccc2)CCc2ccccc21
[A] 2.08

[Q] // query: O=C1CCCCC/C1=C\c1cccc(F)c1
[A] 2.58

[Q] // query: O=C1/C(=C/c2ccc(Br)cc2)CCc2ccccc21
[A] 2.31
